Recorded pKd for the following binders
measurement.target: GABARAPL1 WT (UniProt Q9H0R8 1-117)
Sequence (Q9H0R8 whole entry): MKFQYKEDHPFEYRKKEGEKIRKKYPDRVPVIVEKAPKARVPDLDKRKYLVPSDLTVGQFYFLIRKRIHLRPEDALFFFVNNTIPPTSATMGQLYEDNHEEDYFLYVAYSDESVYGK
method: ITC; peptide in the syringe (0.5 mM) titrated into 200 µl of the Atg8 homologue in the cell at a 10 times lower concentration; MicroCal iTC200, 25 °C, stirring at 1000 rpm; single-site binding model; N fixed to 1.0 when the fitting was not convergent due to weak interaction; errors are fitting errors
details: both partners purified
pKd: −log10 of the molar value.

| binder | pKd |
| --- | --- |
| NDFEMITKY (SEC62, human, residues 361-368 (lacks the helix C-terminal to the AIM/LIR); Tyr attached to the C terminus for quantification by absorbance at 280 nm; also called Sec62361-368 WT (Δhelix); source: synthetic peptide (BEX Co., Ltd.), SEC) [SEC62361-368 (Δhelix) peptide] | 4.88 |
| GPHSSGNGNDFEMITKEELEQQTDY [SEC62355-376 WT peptide] | 6.41 |
